For each entry below, report its PBM binding z-score value.
test system: THRa:RXRa (NR concentration 90 nM, RXRa partner concentration 90 nM); assay: PBM binding z-score (relative to random genomic background probes); higher = stronger binding; sequences stand for … in GC…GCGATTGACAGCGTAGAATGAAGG
One number for each entry.

The cases that follow already have their PBM binding z-score on record.
Sequence input: GATGCTAGGTCAACTGATGGTCAGCTAAAGCTCG
Assayed system: THRa:RXRa (NR concentration 90 nM, RXRa partner concentration 90 nM)
PBM binding z-score: 2.98
--
Sequence input: GCTTACGGGTCAAAGGTTCTAGCATGAATAGAAT
Assayed system: THRa:RXRa (NR concentration 90 nM, RXRa partner concentration 90 nM)
PBM binding z-score: 2.7
--
Sequence input: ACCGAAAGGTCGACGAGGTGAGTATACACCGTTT
Assayed system: THRa:RXRa (NR concentration 90 nM, RXRa partner concentration 90 nM)
PBM binding z-score: 3.61

Now for another entry.
Entry `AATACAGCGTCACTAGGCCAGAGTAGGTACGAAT` : PBM binding z-score on THRa:RXRa (NR concentration 90 nM, RXRa partner concentration 90 nM) = -0.216
